- Test system: Mycobacterium marinum (Mm) in infection of Dictyostelium discoideum (Mm-inf)
- experiment.description: Anti-infective assay, growth of Mm during infection of Dd (Mm-inf, luminescence)
- Format: cell-based
- cond: read-out: IC50 Mm-inf; 72 h, AUC of luminescence normalized to vehicle, 4PL regression
readout.name: IC50 (µM)
Give bare numbers, in µM.

Quick one: IC50 for COc1cc(OC)cc(C2c3cc(C=Cc4cc(O)cc(O)c4)ccc3OC2c2ccc(O)cc2)c1 (stereo not shown) ? 18.9

----------
- Test system: Dictyostelium discoideum (Dd-inf)
- experiment.description: microbe, parasite or virus in culture
- Type: cell-based
- cond: dose-response curve
Would you mind telling me the reported lowest measured value of Dd-inf (normalized residual growth) of each entry?
Give bare numbers.

Answered cases to consult:
{"columns": ["compound", "measured.target", "data.value"],
 "data": [
  ["COc1ccc([C@H]2Oc3ccc(/C=C/c4cc(O)cc(OC)c4)cc3[C@@H]2c2cc(O)cc(O)c2)cc1 [compound 63]", "Dictyostelium discoideum (Dd-inf)", 0.8],
  ["COc1cc(C=Cc2ccc3c(c2)C(c2cc(O)cc(O)c2)C(c2ccc(O)cc2)O3)cc(OC)c1 (stereo not shown) [compound 19]", "Dictyostelium discoideum (Dd-inf)", "−0.40"],
  ["COc1cc(O)cc(/C=C/c2ccc3c(c2)[C@H](c2cc(O)cc(OC)c2)[C@@H](c2ccc(O)cc2)O3)c1 [compound 64]", "Dictyostelium discoideum (Dd-inf)", 0.62]
]}

What value of lowest measured value of Dd-inf (normalized residual growth) has been recorded for this entry: COc1ccc([C@H]2Oc3ccc(/C=C/c4cc(O)cc(O)c4)cc3[C@@H]2c2cc(O)cc(OC)c2)cc1 [compound 62] 0.42
